# target entity: recombinant human PARP (Homo sapiens)
# assay comment: Measurement of PARP enzymatic activity (transfer of radiolabeled ADP-ribose from NAD+ to protein acceptor)
# Assay type: biochemical
# test parameters: PARP IC50 (nM), Table 2
metric name: IC50 (nM)
Respond numerically; units are nM and should not be typed.

                                   molecule  metric_name  endpoint_result
0  O=C(CBr)c1ccc2[nH]c3c4c(c5c(c3c2c1)C(=O)NC5=O)CCC4 [Compound 2e]         IC50               13
1  O=C1NC(=O)c2c1c1c(c3[nH]c4ccc(-c5csc(CNC(=O)C6CCCC6)n5)cc4c23)CCC1 [Compound 3x]         IC50               52
2  O=C(NCc1nc(-c2ccc3[nH]c4c5c(c6c(c4c3c2)C(=O)NC6=O)CCC5)cs1)OCc1ccccc1 [Compound 3j]         IC50               20

Sure, the documented IC50 for O=C1NC(=O)c2c1c1c(c3[nH]c4ccc(-c5csc(CNC(=O)C6CC6)n5)cc4c23)CCC1 [Compound 3w] is 49

* * *

# target entity: recombinant human PARP (Homo sapiens, UniProt P09874)
# Sequence (P09874 whole entry): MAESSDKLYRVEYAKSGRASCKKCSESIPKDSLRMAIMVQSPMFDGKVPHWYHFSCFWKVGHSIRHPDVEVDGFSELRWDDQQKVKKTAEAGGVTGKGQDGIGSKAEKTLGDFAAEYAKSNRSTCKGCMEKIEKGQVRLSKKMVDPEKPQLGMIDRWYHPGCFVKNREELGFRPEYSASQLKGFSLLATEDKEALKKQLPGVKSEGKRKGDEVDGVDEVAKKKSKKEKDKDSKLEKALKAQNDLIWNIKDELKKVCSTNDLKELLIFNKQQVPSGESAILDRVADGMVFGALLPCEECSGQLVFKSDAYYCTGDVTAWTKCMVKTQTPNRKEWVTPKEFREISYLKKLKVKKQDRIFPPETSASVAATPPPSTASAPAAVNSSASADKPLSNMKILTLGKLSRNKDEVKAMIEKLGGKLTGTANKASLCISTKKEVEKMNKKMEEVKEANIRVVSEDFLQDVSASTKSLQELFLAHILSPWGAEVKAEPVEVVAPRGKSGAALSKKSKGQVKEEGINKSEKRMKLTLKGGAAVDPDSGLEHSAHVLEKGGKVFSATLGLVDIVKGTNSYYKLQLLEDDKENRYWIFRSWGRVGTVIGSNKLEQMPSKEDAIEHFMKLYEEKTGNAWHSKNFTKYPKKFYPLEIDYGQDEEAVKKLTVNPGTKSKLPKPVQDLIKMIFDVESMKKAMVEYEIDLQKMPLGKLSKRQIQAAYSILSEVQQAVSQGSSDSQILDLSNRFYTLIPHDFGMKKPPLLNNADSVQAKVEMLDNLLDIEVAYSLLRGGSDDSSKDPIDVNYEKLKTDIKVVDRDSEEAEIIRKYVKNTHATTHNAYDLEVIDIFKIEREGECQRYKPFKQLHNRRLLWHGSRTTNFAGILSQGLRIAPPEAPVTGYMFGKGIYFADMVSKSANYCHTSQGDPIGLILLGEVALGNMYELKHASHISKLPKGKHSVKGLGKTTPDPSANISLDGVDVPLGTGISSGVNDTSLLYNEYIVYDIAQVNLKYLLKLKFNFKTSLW
# assay comment: Measurement of PARP enzymatic activity (transfer of radiolabeled ADP-ribose from NAD+ to protein acceptor)
# Type: biochemical
# test parameters: Table 2; read-out: PARP IC50
IC50 less than 30 nM is T; IC50 greater than or equal to 30 nM is F.

Example results:
>>> print(df.to_string())
                                   compound  answer_label
0  CC(C)(C)OC(=O)NCc1ccc2[nH]c3c4c(c5c(c3c2c1)C(=O)NC5=O)CCC4             F
1  O=C1NC(=O)c2c1c1c(c3[nH]c4ccc(CN5CCCCC5)cc4c23)CCC1             F
2  CCN(CC)CCOc1ccc2[nH]c3c4c(c5c(c3c2c1)C(=O)NC5=O)CCC4             F
3  O=C1NC(=O)c2c1c1c(c3[nH]c4ccc(CNCc5ccccc5)cc4c23)CCC1             T
4  NC(N)=Nc1nc(-c2ccc3[nH]c4c5c(c6c(c4c3c2)C(=O)NC6=O)CCC5)cs1             T

Field: below-cutoff. Rule: recorded IC50 strictly less than 30 nM. Subject: "O=C1NC(=O)c2c1c1c(c3[nH]c4ccc(CN(Cc5ccccc5)Cc5ccccc5)cc4c23)CCC1"
F

Field: below-cutoff. Rule: recorded IC50 strictly less than 30 nM. Subject: "NC(=O)[C@@H]1CCCN1C(=O)CCC(=O)c1ccc2[nH]c3c4c(c5c(c3c2c1)C(=O)NC5=O)CCC4"
T

Field: below-cutoff. Rule: recorded IC50 strictly less than 30 nM. Subject: "CC(C)CC(=O)NCc1nc(-c2ccc3[nH]c4c5c(c6c(c4c3c2)C(=O)NC6=O)CCC5)cs1"
F

* * *

# target entity: recombinant human PARP (Homo sapiens, UniProt P09874)
# assay comment: Measurement of PARP enzymatic activity (transfer of radiolabeled ADP-ribose from NAD+ to protein acceptor)
# Assay type: biochemical
# test parameters: Table 2; read-out: PARP IC50
metric name: IC50 (µM)
Respond numerically; units are µM and should not be typed.

Sample records with IC50:
>>> df
                               query_smiles  metric_name  endpoint_result
0  CCCCC(=O)NCc1nc(-c2ccc3[nH]c4c5c(c6c(c4c3c2)C(=O)NC6=O)CCC5)cs1         IC50            0.056
1  O=C(Cn1cnnn1)NCc1ccc2[nH]c3c4c(c5c(c3c2c1)C(=O)NC5=O)CCC4         IC50            0.014
2  CN(Cc1ccncc1)C(=O)c1ccc2[nH]c3c4c(c5c(c3c2c1)C(=O)NC5=O)CCC4         IC50             0.01

We now examine a further molecule.
Sure, the documented IC50 for "CC(C)(C)OC(=O)N[C@@H](CCCNc1nc(-c2ccc3[nH]c4c5c(c6c(c4c3c2)C(=O)NC6=O)CCC5)cs1)C(=O)OC(C)(C)C" is 0.046

The reported numbers originate from patent US8716493B2.
